Biological target: Type-A CCK receptor (Cavia porcellus, UniProt Q63931)
Construct: Cortical and pancreatic membranes were prepared as described; from tissue; host or cells: guinea pig pancreas membranes
Sequence (Q63931 whole entry): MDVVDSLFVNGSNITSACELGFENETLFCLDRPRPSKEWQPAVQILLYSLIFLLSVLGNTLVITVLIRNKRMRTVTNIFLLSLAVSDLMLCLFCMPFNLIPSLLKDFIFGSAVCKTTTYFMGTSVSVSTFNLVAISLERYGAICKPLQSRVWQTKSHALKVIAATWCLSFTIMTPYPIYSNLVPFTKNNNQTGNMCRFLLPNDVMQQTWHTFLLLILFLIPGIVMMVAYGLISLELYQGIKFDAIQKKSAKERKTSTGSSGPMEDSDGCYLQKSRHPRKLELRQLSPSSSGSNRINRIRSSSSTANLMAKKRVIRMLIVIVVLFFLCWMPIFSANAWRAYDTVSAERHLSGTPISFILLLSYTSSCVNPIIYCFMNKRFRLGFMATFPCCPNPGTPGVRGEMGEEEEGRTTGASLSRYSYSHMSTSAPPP
Test: Radioligand binding of [125I]BH-CCK-8 in guinea pig pancreatic membrane preparations
*1 amine or outer side, *2 acyl side, *3 side chain or, on linkers, in order; H or OH if unused. Where a SMILES comes first, the peptide text is derived from it. Side-chain parts run from the residue outwards. [ ]: non-standard residue; d: D form. The star is where a group is joined. NMeF = CN[C@@H](Cc1ccccc1)C(=O)O; X4 = O=C(OC1C2CC3CC(C2)CC1C3)*; NH(2-Me-phenyl) = Cc1ccccc1N*; X18 = O=C(/C=C/c1ccc(Cl)cc1)*; X7 = Cc1ccc(/C=C/C(=O)*)cc1; Cbz = O=C(OCc1ccccc1)*; Boc = CC(C)(C)OC(=O)*; CO = O=C([*:1])[*:2]; X2 = C1CN(CCO*)CCO1; Moc = COC(=O)*
Kindly supply the reported pIC50 values for the records listed here.
Note: pIC50 values are expressed as the negative base-10 logarithm of concentration in M.

The compound identified as COC(=O)N[C@@H](Cc1c[nH]c2ccccc12)C(=O)N[C@@H](CCCCNC(=O)Nc1ccccc1C)C(=O)N[C@@H](CC(=O)O)C(=O)N(C)[C@@H](Cc1ccccc1)C(N)=O [Example 80] (Moc-WK([CO-NH(2-Me-phenyl)])D[NMeF]-NH2) registered its pIC50 at 8.32

The compound identified as Cc1ccccc1NC(=O)NCCCC[C@H](NC(=O)[C@H](Cc1c[nH]c2ccccc12)NC(=O)OC1C2CC3CC(C2)CC1C3)C(=O)N[C@@H](CC(=O)O)C(=O)N(C)[C@@H](Cc1ccccc1)C(N)=O (stereo partly drawn) [Example 74] (X4-WK([CO-NH(2-Me-phenyl)])D[NMeF]-NH2) registered its pIC50 at 7.66

The compound identified as Cc1ccccc1NC(=O)NCCCC[C@H](NC(=O)[C@H](Cc1c[nH]c2ccccc12)NC(=O)OCc1ccccc1)C(=O)N[C@@H](CC(=O)O)C(=O)N(C)[C@@H](Cc1ccccc1)C(N)=O [Example 76] (Cbz-WK([CO-NH(2-Me-phenyl)])D[NMeF]-NH2) registered its pIC50 at 7.74

The compound identified as Cc1ccc(/C=C/C(=O)NCCCC[C@H](NC(=O)[C@H](Cc2c[nH]c3ccccc23)NC(=O)OC(C)(C)C)C(=O)N[C@@H](CC(=O)O)C(=O)N[C@@H](Cc2ccccc2)C(N)=O)cc1 [Example 6] (Boc-WK(X7)DF-NH2) registered its pIC50 at 7.15

The compound identified as Cc1ccccc1NC(=O)NCCCC[C@H](NC(=O)[C@H](Cc1c[nH]c2ccccc12)NC(=O)OC(C)(C)C)C(=O)N[C@@H](CC(=O)OCCN1CCOCC1)C(=O)N(C)[C@@H](Cc1ccccc1)C(N)=O [Example 120] (Boc-WK([CO-NH(2-Me-phenyl)])D(X2)[NMeF]-NH2) registered its pIC50 at 7.59

The compound identified as CN(C(=O)[C@H](CC(=O)O)NC(=O)[C@H](CCCCNC(=O)/C=C/c1ccc(Cl)cc1)NC(=O)[C@H](Cc1c[nH]c2ccccc12)NC(=O)OC(C)(C)C)[C@@H](Cc1ccccc1)C(N)=O [Example 18] (Boc-WK(X18)D[NMeF]-NH2) registered its pIC50 at 7.66
